// provenance: patent US20080269343A1

- Method Summary: Single-dose four-period crossover pharmacokinetic study of 75, 150, 300 and 600 mg aliskiren (dosage form 3) in healthy volunteers (Example 3)
- Type: in vivo
- Condition Set: human, plasma; median; single oral dose 75 mg, dosage form 3, healthy subjects n = 30, fasted
Measured Quantity: Tmax
Report as: number unit

**Q:** Given COCCCOc1cc(C[C@@H](C[C@H](N)[C@@H](O)C[C@H](C(=O)NCC(C)(C)C(N)=O)C(C)C)C(C)C)ccc1OC , state its recorded Tmax.
**A:** 1 h

* * *

- Method Summary: Steady-state pharmacokinetics of aliskiren 300 mg alone, digoxin interaction study, Day 7 (Example 8)
- Format: in vivo, human
- Condition Set: human, in vivo, oral, 300 mg, Geometric Mean, 300 mg daily, Day 7, healthy volunteers N 21
Measured Quantity: AUC (ng·h/mL)
Answers are plain numbers, in ng·h/mL.

**Q:** Given COCCCOc1cc(C[C@@H](C[C@H](N)[C@@H](O)C[C@H](C(=O)NCC(C)(C)C(N)=O)C(C)C)C(C)C)ccc1OC , state its recorded AUC.
**A:** 1600

* * *

- Method Summary: Single-dose 300 mg pharmacokinetic study in healthy and type 2 diabetic subjects (Example 4)
- Assay type: in vivo, human
- Condition Set: human, plasma, po, 300 mg, arithmetic mean; single oral dose 300 mg, type 2 diabetic patients n = 30
Measured Quantity: AUC(0-inf) (ng·h/mL)
Answers are plain numbers, in ng·h/mL.

**Q:** Given COCCCOc1cc(C[C@@H](C[C@H](N)[C@@H](O)C[C@H](C(=O)NCC(C)(C)C(N)=O)C(C)C)C(C)C)ccc1OC [aliskiren] , state its recorded AUC(0-inf).
**A:** 2040

* * *

- Method Summary: Single-dose 300 mg pharmacokinetic study in healthy and type 2 diabetic subjects (Example 4)
- Format: in vivo, human
- Condition Set: human, plasma, po, 300 mg, Median; single oral dose 300 mg, healthy subjects n = 30
Measured Quantity: AUC(0-inf)
Report as: number unit

**Q:** Given COCCCOc1cc(C[C@@H](C[C@H](N)[C@@H](O)C[C@H](C(=O)NCC(C)(C)C(N)=O)C(C)C)C(C)C)ccc1OC , state its recorded AUC(0-inf).
**A:** 1340 ng·h/mL

* * *

- Method Summary: Single and multiple dose 300 mg pharmacokinetic study in Japanese and Caucasian healthy male subjects (Example 5)
- Format: in vivo, human
- Condition Set: male, human, plasma, oral, 300 mg, Median (minimum-maximum); single dose 300 mg, Caucasian subjects n=19, fasted; read-out: Tmax
Measured Quantity: Tmax (h)
Answers are plain numbers, in h.

**Q:** Given COCCCOc1cc(C[C@@H](C[C@H](N)[C@@H](O)C[C@H](C(=O)NCC(C)(C)C(N)=O)C(C)C)C(C)C)ccc1OC [aliskiren] , state its recorded Tmax.
**A:** 2

* * *

- Method Summary: Single-dose four-period crossover pharmacokinetic study of 75, 150, 300 and 600 mg aliskiren (dosage form 3) in healthy volunteers (Example 3)
- Assay type: in vivo
- Condition Set: human, plasma; median; single oral dose 300 mg, dosage form 3, healthy subjects n = 30, fasted
Measured Quantity: Tmax (h)
One number for each entry, in h.

**Q:** Given COCCCOc1cc(C[C@@H](C[C@H](N)[C@@H](O)C[C@H](C(=O)NCC(C)(C)C(N)=O)C(C)C)C(C)C)ccc1OC , state its recorded Tmax.
**A:** 3

* * *

- Method Summary: Single-dose four-period crossover pharmacokinetic study of 75, 150, 300 and 600 mg aliskiren (dosage form 3) in healthy volunteers (Example 3)
- Type: in vivo
- Condition Set: human, plasma; arithmetic mean (SD); single oral dose 300 mg, healthy subjects n = 30
Measured Quantity: AUC(0-inf) (ng·h/mL)
Numbers only, in ng·h/mL.

**Q:** Given COCCCOc1cc(C[C@@H](C[C@H](N)[C@@H](O)C[C@H](C(=O)NCC(C)(C)C(N)=O)C(C)C)C(C)C)ccc1OC [aliskiren] , state its recorded AUC(0-inf).
**A:** 1620

* * *

- Method Summary: Single-dose four-period crossover pharmacokinetic study of 75, 150, 300 and 600 mg aliskiren (dosage form 3) in healthy volunteers (Example 3)
- Format: in vivo
- Condition Set: human, plasma; arithmetic mean (SD); single oral dose 75 mg, healthy subjects n = 30
- Description: An open-label, single-dose, four-period, four-treatment, randomized crossover study with a 7-day washout between each period to compare the plasma concentrations of 75, 150, 300 and 600 mg of aliskiren (dosage form 3) in healthy volunteers was carried out. A total of 32 healthy subjects enrolled and 30 completed all study procedures and treatments. […]
Measured Quantity: Cmax (ng/mL)
Answers are plain numbers, in ng/mL.

**Q:** Given COCCCOc1cc(C[C@@H](C[C@H](N)[C@@H](O)C[C@H](C(=O)NCC(C)(C)C(N)=O)C(C)C)C(C)C)ccc1OC , state its recorded Cmax.
**A:** 26

* * *

- Method Summary: Ranges of arithmetic mean plasma pharmacokinetic parameters provided by the 300 mg solid oral dosage form (summary of the studies)
- Assay type: in vivo
- Condition Set: human, range of study means, single dosage of about 300 mg free base, read-out: arithmetic mean AUC0-96 of aliskiren
Measured Quantity: AUC(0-t)

**Q:** Given COCCCOc1cc(C[C@@H](C[C@H](N)[C@@H](O)C[C@H](C(=O)NCC(C)(C)C(N)=O)C(C)C)C(C)C)ccc1OC [aliskiren] , state its recorded AUC(0-t).
**A:** 1480 to 1860 ng·h/mL

* * *

- Method Summary: Single-dose 300 mg pharmacokinetic study in healthy and type 2 diabetic subjects (Example 4)
- Assay type: in vivo, human
- Condition Set: human, plasma, po, 300 mg, Geometric Mean; single oral dose 300 mg, healthy subjects n = 30; read-out: AUC0-96
Measured Quantity: AUC(0-t) (ng·h/mL)
Give bare numbers, in ng·h/mL.

**Q:** Given COCCCOc1cc(C[C@@H](C[C@H](N)[C@@H](O)C[C@H](C(=O)NCC(C)(C)C(N)=O)C(C)C)C(C)C)ccc1OC , state its recorded AUC(0-t).
**A:** 1380

* * *

- Method Summary: Single and multiple dose 300 mg pharmacokinetic study in Japanese and Caucasian healthy male subjects (Example 5)
- Format: in vivo, human
- Condition Set: male, human, plasma, oral, 300 mg, arithmetic mean (SD); steady state, 300 mg once a day, Caucasian subjects; read-out: Cmax^SS
Measured Quantity: Cmax (ng/mL)
Give bare numbers, in ng/mL.

**Q:** Given COCCCOc1cc(C[C@@H](C[C@H](N)[C@@H](O)C[C@H](C(=O)NCC(C)(C)C(N)=O)C(C)C)C(C)C)ccc1OC , state its recorded Cmax.
**A:** 321

* * *

- Method Summary: Single-dose four-period crossover pharmacokinetic study of 75, 150, 300 and 600 mg aliskiren (dosage form 3) in healthy volunteers (Example 3)
- Format: in vivo
- Condition Set: human, plasma; median; single oral dose 150 mg, dosage form 3, healthy subjects n = 30, fasted
Measured Quantity: Tmax (h)
Numbers only, in h.

**Q:** Given COCCCOc1cc(C[C@@H](C[C@H](N)[C@@H](O)C[C@H](C(=O)NCC(C)(C)C(N)=O)C(C)C)C(C)C)ccc1OC [aliskiren] , state its recorded Tmax.
**A:** 2.5

* * *

- Method Summary: Steady-state pharmacokinetics of aliskiren 300 mg alone, furosemide interaction study, Day 13 (Example 6)
- Assay type: in vivo, human
- Condition Set: both sexes, human, in vivo, oral, 300 mg, Median, 300 mg daily, Day 13, healthy volunteers N 21
Measured Quantity: Tmax (h)
Give bare numbers, in h.

**Q:** Given COCCCOc1cc(C[C@@H](C[C@H](N)[C@@H](O)C[C@H](C(=O)NCC(C)(C)C(N)=O)C(C)C)C(C)C)ccc1OC , state its recorded Tmax.
**A:** 1

* * *

- Method Summary: Steady-state pharmacokinetics of aliskiren 300 mg alone, digoxin interaction study, Day 7 (Example 8)
- Type: in vivo, human
- Condition Set: human, in vivo, oral, 300 mg, Median, 300 mg daily, Day 7, healthy volunteers N 21
Measured Quantity: Tmax (h)
Give bare numbers, in h.

**Q:** Given COCCCOc1cc(C[C@@H](C[C@H](N)[C@@H](O)C[C@H](C(=O)NCC(C)(C)C(N)=O)C(C)C)C(C)C)ccc1OC [aliskiren] , state its recorded Tmax.
**A:** 1

* * *

- Method Summary: Steady-state pharmacokinetics of aliskiren 300 mg alone, digoxin interaction study, Day 7 (Example 8)
- Assay type: in vivo, human
- Condition Set: human, in vivo, oral, 300 mg, Median, 300 mg daily, Day 7, healthy volunteers N 21
Measured Quantity: Cmax (ng/mL)
Numbers only, in ng/mL.

**Q:** Given COCCCOc1cc(C[C@@H](C[C@H](N)[C@@H](O)C[C@H](C(=O)NCC(C)(C)C(N)=O)C(C)C)C(C)C)ccc1OC [aliskiren] , state its recorded Cmax.
**A:** 234
